Attribute: composite z-score
# target: Torsin-1A-interacting protein 2 (Homo sapiens) (UniProt Q8NFQ8)
# Sequence (Q8NFQ8 whole entry, looked up): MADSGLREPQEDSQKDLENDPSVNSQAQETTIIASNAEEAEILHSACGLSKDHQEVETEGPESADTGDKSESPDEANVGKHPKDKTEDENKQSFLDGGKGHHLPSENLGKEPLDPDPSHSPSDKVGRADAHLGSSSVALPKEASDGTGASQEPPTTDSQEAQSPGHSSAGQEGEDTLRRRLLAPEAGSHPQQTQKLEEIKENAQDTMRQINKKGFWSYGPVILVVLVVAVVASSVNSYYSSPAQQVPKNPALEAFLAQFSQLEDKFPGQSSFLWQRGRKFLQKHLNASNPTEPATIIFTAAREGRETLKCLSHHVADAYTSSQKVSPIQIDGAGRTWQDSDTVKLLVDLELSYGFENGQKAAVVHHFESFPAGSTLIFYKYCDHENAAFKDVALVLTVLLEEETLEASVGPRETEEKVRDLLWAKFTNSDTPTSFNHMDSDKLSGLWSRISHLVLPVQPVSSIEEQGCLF
# assay-procedure: LULL1 binders on small-molecule microarray, primary screen, cell lysate, human LULL1 lysate, 635/667 nm fluorescence (AID 1092);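 note: probe is lysate of COS7 cells overexpressing human LULL1; score merges per-feature 667 nm fluorescence with signal-to-noise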
# condition-set: hLULL1 lysate binding, 635 nm fluorescence, higher = more signal
The answer should be a number; do not append a unit.

Please review the following examples before continuing.
compound="CCOC(=O)[C@H](CC(C)C)NC(=O)CCC1CC(OC(=O)NCc2cccc3ccccc23)CC2(CCCC(COC(=O)NCCOC)O2)O1 (stereo partly drawn)" measured_result=2.7
compound=COC(=O)CC=C[C@@H](C)[C@@H](C=NOCC[C@@H]1C=C[C@H](OC(C)=O)[C@@H](COC(C)=O)O1)NS(=O)(=O)c1ccc(C)cc1 measured_result=-0.0098
compound="C[C@H]1CC[C@H]2C(=O)OC(CO)CN2[C@@H]1c1ccc(Br)cc1 (stereo partly drawn)" measured_result=-0.467
compound=CO[C@H]1COC(=O)CC=C[C@@H](C)[C@H](OC)COC(=O)[C@@H]2CCCN2C(=O)CC=C[C@@H]1C measured_result=-0.328
compound=Cn1c(=O)n2n(c1=O)[C@H]1[C@H](O)[C@@H]3O[C@@H]3C(=O)[C@H]1CC2 measured_result=0.485
compound=CCO[C@H](c1cc(OC)cc([N+](=O)[O-])c1OC)[C@H](C)C=CCC(=O)OC measured_result=-0.746
compound=C=CC[C@@H]1C=C[C@H](ON=C(C)CCC(=O)OC[C@H]2O[C@H](C#Cc3ccccc3)C=C[C@@H]2Oc2ccc(C)cc2)[C@@H](CO)O1 measured_result=2.2

Moving on to another compound below.
Hello, please tell me recorded composite z-score for this one: CON=C1[C@H]2CCn3c(=O)n(-c4ccccc4)c(=O)n3[C@H]2[C@H](O)[C@@H]2O[C@H]12 0.456

* * *

# System: Human papillomavirus type 1a protein E7 (residues 44-93)
# assay-procedure: HPV1a E7 fragment binders on microarrays, primary screen, biochemical, small-molecule microarray, residues 44-93, 635 nm fluorescence (AID 1108);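 note: E7 fragment applied at 1 µg/mL in TBST for 1 h at 4 C; score combines spot fluorescence with its signal to noise ratio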
# condition-set: small-molecule microarray binding, fluorescence 635 nm; higher = more signal
attribute-measured: composite z-score
The answer should be a number; do not append a unit.

compound=CCN1C(=O)[C@H]2[C@H]3[C@H](O)[C@H](O)CC(=NO[C@@H](C)c4cn([C@H](CO)Cc5ccccc5)nn4)[C@@H]3CC[C@H]2C1=O attribute_measured="composite z-score" measured_result=0.696

Hello, please tell me recorded composite z-score for this one: O=C1CCCC=C1C(CCc1ccccc1)OC(=O)c1ccc(Br)cc1 (stereo not given) -2.1

Hello, please tell me recorded composite z-score for this one: C[C@@H]1NC(=O)[C@@H](C)COC(=O)[C@H](C)NC(=O)[C@@H](C)COC1=O 1.08

Hello, please tell me recorded composite z-score for this one: CC(C)CON=C1C[C@@H](O)[C@@H](O)[C@@H]2[C@@H]3C(=O)N(Cc4ccc5c(c4)OCO5)C(=O)[C@@H]3CC[C@H]12 1.33

Hello, please tell me recorded composite z-score for this one: COC(=O)[C@@H]1CC[C@@H](C)[C@H](c2ccc(Br)cc2)N1 -1.2

Hello, please tell me recorded composite z-score for this one: COC(=O)[C@@H]1CC[C@H](C)[C@@H](c2ccc(C)cc2)N1C(=O)c1ccc(C=NO[C@@H](C)c2cn([C@H](CO)Cc3ccccc3)nn2)cc1 1.3

Hello, please tell me recorded composite z-score for this one: CCOC(=O)NN=C1C[C@@H](O)[C@@H](O)[C@@H]2[C@@H]3C(=O)N(C(C)(C)C)C(=O)[C@@H]3CC[C@H]12 0.217

Hello, please tell me recorded composite z-score for this one: O=C1[C@H]2[C@H]3[C@H](O)[C@H](O)CC(=NOC[C@@H](O)COCc4ccco4)[C@H]3CC[C@H]2C(=O)N1Cc1ccccc1 -1.01

Hello, please tell me recorded composite z-score for this one: CCOC(=O)[C@H](CC(C)C)NC(=O)CCC1CC(OC(=O)NCc2cccc3ccccc23)CC2(CCCC(COC(=O)NCc3ccncc3)O2)O1 (stereo not given in full) 1.38
